System: hTERT-HMEC
Procedure Details: percentage of EdU-negative (G0-arrested) nuclei per well, 72 h; higher = more G0 arrest;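 also: secreted proteins added to cultured cells, EdU pulse at the end, nuclei found by Hoechst imaging, EdU status from nuclear versus surrounding ring intensity ratio, PBS as neutral control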
Test Settings: protein concentration 0.225 µM; reference: sequence is the full UniProt precursor, the tested protein was the secreted form or ectodomain
Outcome Measure: percentage of EdU-negative (%)
Kindly answer with a numeric value in %, unit omitted.

Sure, the documented percentage of EdU-negative for MDFGLALLLAGLLGLLLGQSLQVKPLQVEPPEPVVAVALGASRQLTCRLACADRGASVQWRGLDTSLGAVQSDTGRSVLTVRNASLSAAGTRVCVGSCGGRTFQHTVQLLVYAFPDQLTVSPAALVPGDPEVACTAHKVTPVDPNALSFSLLVGGQELEGAQALGPEVQEEEEEPQGDEDVLFRVTERWRLPPLGTPVPPALYCQATMRLPGLELSHRQAIPVLHSPTSPEPPDTTSPESPDTTSPESPDTTSQEPPDTTSPEPPDKTSPEPAPQQGSTHTPRSPGSTRTRRPEISQAGPTQGEVIPTGSSKPAGDQLPAALWTSSAVLGLLLLALPTYHLWKRCRHLAEDDTHPPASLRLLPQVSAWAGLRGTGQVGISPS is 5.85

* * *

Recorded measurements of percentage of EdU-negative, one per entry
Test system: hTERT-HMEC
Procedure Details: percentage of EdU-negative (G0-arrested) nuclei per well, 72 h; higher = more G0 arrest
Test Settings: protein concentration 0.0225 µM; reference: sequence is the full UniProt precursor, the tested protein was the secreted form or ectodomain
Kindly answer with a numeric value in %, unit omitted.

Sure, the documented percentage of EdU-negative for MICLVLTIFANLFPAACTGAHERTFLAVKPDGVQRRLVGEIVRRFERKGFKLVALKLVQASEELLREHYAELRERPFYGRLVKYMASGPVVAMVWQGLDVVRTSRALIGATNPADAPPGTIRGDFCIEVGKNLIHGSDSVESARREIALWFRADELLCWEDSAGHWLYE is 4.25

Sure, the documented percentage of EdU-negative for MPPRGPASELLLLRLLLLGAATAAPLAPRPSKEELTRCLAEVVTEVLTVGQVQRGPCTALLHKELCGTEPHGCASTEEKGLLLGDFKKQEAGKMRSSQEVRDEEEEEVAERTHKSEVQEQAIRMQGHRQLHQEEDEEEEKEERKRGPMETFEDLWQRHLENGGDLQKRVAEKASDKETAQFQAEEKGVRVLGGDRSLWQGAERGGGERREDLPHHHHHHHQPEAEPRQEKEEASEREEKEVEQLEHLRDELKKVTETLGEQLRREG [I3L3R5] is 5.07

Sure, the documented percentage of EdU-negative for MVWKWMPLLLLLVCVATMCSAQDRTDLLNVCMDAKHHKTKPGPEDKLHDQCSPWKKNACCTASTSQELHKDTSRLYNFNWDHCGKMEPACKRHFIQDTCLYECSPNLGPWIQQVNQSWRKERFLDVPLCKEDCQRWWEDCHTSHTCKSNWHRGWDWTSGVNKCPAGALCRTFESYFPTPAALCEGLWSHSYKVSNYSRGSGRCIQMWFDSAQGNPNEEVARFYAAAMHVNAGEMLHGTGGLLLSLALMLQLWLLG is 4.38

* * *

System: MCF7
Procedure Details: percentage of EdU-negative (G0-arrested) nuclei per well, 72 h; higher = more G0 arrest
Test Settings: protein concentration 0.225 µM; reference: sequence is the full UniProt precursor, the tested protein was the secreted form or ectodomain
Recorded measurements of percentage of EdU-negative, one per entry
Kindly answer with a numeric value in %, unit omitted.

Residue Codes	percentage of EdU-negative / %
MIRTLLLSTLVAGALSCGVSTYAPDMSRMLGGEEARPNSWPWQVSLQYSSNGQWYHTCGGSLIANSWVLTAAHCISSSGIYRVMLGQHNLYVAESGSLAVSVSKIVVHKDWNSDQVSKGNDIALLKLANPVSLTDKIQLACLPPAGTILPNNYPCYVTGWGRLQTNGALPDDLKQGQLLVVDYATCSSSGWWGSTVKTNMICAGGDGVICTCNGDSGGPLNCQASDGRWEVHGIGSLTSVLGCNYYYKPSIFTRVSNYNDWINSVIANN	26.3

As a next step, examine the sequence that follows.
Sure, the documented percentage of EdU-negative for MEKIPVSAFLLLVALSYTLARDTTVKPGAKKDTKDSRPKLPQTLSRGWGDQLIWTQTYEEALYKSKTSNKPLMIIHHLDECPHSQALKKVFAENKEIQKLAEQFVLLNLVYETTDKHLSPDGQYVPRIMFVDPSLTVRADITGRYSNRLYAYEPADTALLLDNMKKALKLLKTEL is 25.7

# credit: the supplement of paper PMC11316812
